Listing: CC50 of selected molecules
Tested on: MRC5
experimentalProtocol: MRC5 CC50 (uM) Cytotoxicity
Assay type: functional
testContext: Homo sapiens

O=C(NCCc1ccn(-c2ccccc2)n1)C1CCCCC1 : > 64 µM

(Q) Notebook: pull reported CC50 for MRC5, entry N=C(N)Nc1ccc(-c2ccc(-c3ccc(N=C(N)N)c(Cl)c3)o2)cc1Cl
(A) 15.4 µM

(Q) Cool, now CC(=O)Nc1ccc(-c2noc(CC3CCCN(Cc4cccc(F)c4C)C3)n2)cc1 (stereo not given)
(A) 29.4 µM

(Q) Cool, now CCN(CC)S(=O)(=O)c1ccc(C(=O)Nc2cc(C)nn2-c2nc(C)c(C)c(=O)[nH]2)cc1
(A) 6.6 µM

(Q) Cool, now Cc1nn2c(=O)c3c([nH]c2c1-c1ccc(Cl)cc1)CCCC3
(A) > 64 µM

====

Listing: MIC90 of selected compounds
Test system: Mycobacterium tuberculosis
experimentalProtocol: AntiMycobacterium tuberculosis activity day 10 in 7H9/2.5mM butyrate/pH6/0.1mM nitrite MIC90 (uM)
Type: functional
testContext: 240 h

COc1ccc(Cn2cnc3c(-c4ccco4)nc(Cl)nc32)cc1 : > 50 µM
O=C1O[C@@H](CO)CN1c1cc(F)c(C2=CCN(Cc3ccccc3)CC2)c(F)c1 : > 50 µM
Cc1ccc2nc(Cl)c(CNCc3cccs3)cc2c1 : > 50 µM
N#Cc1nc(-c2ccccc2)oc1S(=O)(=O)c1ccc(Cl)cc1 : > 50 µM

Please examine the following record next.
(Q) Can you share its MIC90? I mean this compound: CN1CCN(CCCOc2ncc(Nc3ncc(-c4ccc(C(F)(F)F)c(F)c4)nc3C(N)=O)cn2)CC1
(A) 12.5 µM

====

Test system: Trypanosoma brucei
experimentalProtocol: AntiTrypanosoma brucei activity T. b. rhodesiense IC50 (uM)
Type: functional, organism-based
Listing: log10 of IC50 of selected compounds
Record value = log10 of IC50 given in nM.

Use these answered entries as a reference point.
FC(F)(F)c1cc(NCCc2ccccc2)nc(-c2ccccn2)n1 : 4.43
CCOC(=O)c1noc(N)c1-c1ccccc1 : 2.66
Cc1nc(-c2ccccn2)nc(N(C)CCc2ccccc2)c1Cl : 4.07
COc1cc(C2=NCCN2)ccc1-c1cn(-c2cccc(C3=NCCN3)c2)nn1 : 3.57
CC1=Nc2ccc(Cl)cc2C(c2ccccc2)N1CCNC(=O)CN(C)C (stereo not drawn) : 3.49
CO[C@@H](C(=O)N1Cc2[nH]nc(NC(=O)c3ccc(N4CCN(C)CC4)cc3)c2C1)c1ccccc1 : 2.57
CCCCN(CCCC)c1c(C#N)cc(S(=O)(=O)Nc2ccccc2)cc1C#N : 2.38
Cc1nn2c(O)c3c(nc2c1-c1ccc(F)cc1)CCCC3 : 2.68
Cc1ccc(S(=O)(=O)Nc2ccc(CN3CCN(C(=O)c4cccc(C#N)c4)CC3)cc2)cc1 : 2.08
Cc1noc(C)c1COc1cccc(C(=O)N=c2[nH]cccc2C)c1 : 2.81

(Q) Can you share its log10 of IC50? I mean this compound: COc1cc(C2=NCCN2)cc2cc(-c3ccc(C4=NCCN4)cc3)oc12
(A) 2.89

(Q) Cool, now O=C(Nc1ccc2c(c1)B(O)OC2)c1ccccc1C(F)(F)F
(A) 2.36

(Q) Cool, now COc1ccc(S(=O)(=O)Nc2ccc(CN3CCN(C(=O)c4cccc(C#N)c4)CC3)cc2)cc1
(A) 2.60

(Q) Cool, now CO[C@@H]1CN(c2ccc(C#CC3(O)CN4CCC3CC4)c(Cc3ccccc3)n2)C[C@H]1O (stereo partly drawn)
(A) 3.60

(Q) Cool, now c1ccc(Oc2ccc(-c3cc(CN4CCOCC4)[nH]n3)cc2)cc1
(A) 3.72

(Q) Cool, now CC1COC(Cn2cncn2)(c2ccc(Oc3ccc(Cl)cc3)cc2Cl)O1 (stereo not drawn)
(A) 4.42

(Q) Cool, now c1ccc(Oc2ccc(-c3cc(N4CCNCC4)[nH]n3)cc2)cc1
(A) 2.99

(Q) Cool, now CCN(CC)S(=O)(=O)c1ccc(C(=O)Nc2cc(C)nn2-c2nc(C)c(C)c(=O)[nH]2)cc1
(A) 3.23

(Q) Cool, now COc1ccc(C2=NCCN2)cc1-c1cn(-c2cccc(C3=NCCN3)c2)nn1
(A) 3.21

(Q) Cool, now CO/N=C(\C(=O)OC)c1ccccc1CO/N=C(\C)c1cccc(C(F)(F)F)c1
(A) 4.42

(Q) Cool, now N=C(N)Nc1ccc(-c2ccc(-c3ccc(NC(=N)N)cc3Cl)o2)c(Cl)c1
(A) 2.36

(Q) Cool, now c1cc(C2=NCCN2)cc(-c2cc(-c3ccc(C4=NCCN4)cc3)no2)c1
(A) 3.48

(Q) Cool, now CC1=Nc2ccc(Cl)cc2C(O)(c2ccc(C)cc2)N1CCN1CCCCC1 (stereo not drawn)
(A) 2.63

(Q) Cool, now N=C(N)c1ccc(-c2cc(-c3ccccc3)on2)cc1
(A) 3.03

(Q) Cool, now CC(=O)Nc1ccc(-c2noc(CC3CCCN(Cc4cccc(F)c4C)C3)n2)cc1 (stereo not drawn)
(A) 4.40

(Q) Cool, now CS(=O)(=O)c1ccccc1C(=O)N(Cc1ccccc1)c1ccccc1
(A) 2.60

(Q) Cool, now Nc1ccc2ncnc(Nc3ccc(OCc4cccc(F)c4)c(Cl)c3)c2c1
(A) 4.12

(Q) Cool, now O=C(CN1CCOCC1)Nc1ccc2ncnc(Nc3ccc(OCc4cccc(F)c4)c(Cl)c3)c2c1
(A) 3.49
